- System: ATP;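 also: ATP exposure 15 min at 22 °C before imaging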
- assay: switch fluorescence ratio, 500 uM ATP over buffer (Cy3 cluster intensity, sum of 5 cycles each) (fold (ratio)); higher = stronger signal-on switching upon ATP binding; sequences stand for … in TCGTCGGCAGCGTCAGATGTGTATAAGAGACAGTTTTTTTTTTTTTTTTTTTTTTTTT…TC
- assayConditions: aptamer strand: ATP DNA aptamer (quencher-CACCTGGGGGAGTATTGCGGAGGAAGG + anchor), 100 nM annealed; ATP concentration: 500 uM
sequences and their reported switch fluorescence ratio
observedProperty: switch fluorescence ratio

[[record]]
orderedresidues = "CGTTTTTTGT"
experimentalvalue = 0.984

[[record]]
orderedresidues = "TAGCATGTAC"
experimentalvalue = 5.22

[[record]]
orderedresidues = "AAGATTTTTT"
experimentalvalue = 1.01

